Cited source: ChEMBL document CHEMBL2413015

Assay: Selectivity ratio of IC50 for human serum BChE to IC50 for electric eel AChE
I would appreciate it if you labelled entries 1 when Ratio IC50 is 10 or higher, otherwise -1.

>>> assigned_category("O=C(N/N=C/c1ccc(O)cc1O)Nc1ccncc1")
1
>>> assigned_category("COc1cc(/C=N/NC(=O)Nc2ccncc2)ccc1O")
1
>>> assigned_category("O=C(N/N=C/c1ccccc1)Nc1ccncc1")
1
>>> assigned_category("O=C(N/N=C/c1ccccc1O)Nc1ccncc1")
-1
>>> assigned_category("COc1ccc(/C=N/NC(=O)Nc2ccncc2)cc1OC")
1
>>> assigned_category("COc1ccc(/C=N/NC(=O)Nc2ccncc2)cc1")
1
>>> assigned_category("O=C(NN=C(c1ccccc1)c1ccccc1)Nc1ccncc1")
1
>>> assigned_category("C/C(=N\\NC(=O)Nc1ccncc1)c1ccc(O)cc1")
-1

* * *

Tested on: Rattus norvegicus
Experiment: Toxicity in albino rat assessed as mortality upto 100 mg/kg after 30 mins to 48 hrs
Format: organism-based
Set-up: dose 100 mg/kg
Settings: in vivo
measured metric: Activity

>>> reported_value("O=C(N/N=C/c1ccccc1)Nc1ccncc1")
"Non-toxic"
>>> reported_value("C/C(=N\\NC(=O)Nc1ccncc1)c1ccc(O)cc1")
"Non-toxic"
>>> reported_value("COc1ccc(/C=N/NC(=O)Nc2ccncc2)cc1OC")
"Non-toxic"

* * *

Molecular target: Cholinesterase (Homo sapiens)
Assay: Inhibition of human serum BChE using butyrylthiocholine iodide as substrate preincubated for 20 mins prior to substrate addition by Ellman's method
Decide using IC50 alone. Strictly below 200 µM: satisfied. Equal to or above 200 µM: not satisfied.

>>> assigned_category("NC(=O)Nc1ccncc1")
"not satisfied"
>>> assigned_category("COc1cc(/C=N/NC(=O)Nc2ccncc2)ccc1O")
"not satisfied"
>>> assigned_category("COc1ccc(/C=N/NC(=O)Nc2ccncc2)cc1")
"not satisfied"
>>> assigned_category("C/C(=N\\NC(=O)Nc1ccncc1)c1ccc(O)cc1")
"satisfied"
>>> assigned_category("O=C(N/N=C/c1ccc(O)cc1O)Nc1ccncc1")
"satisfied"
>>> assigned_category("O=C(N/N=C/c1ccccc1O)Nc1ccncc1")
"not satisfied"
>>> assigned_category("O=C(NN=C(c1ccccc1)c1ccccc1)Nc1ccncc1")
"satisfied"

* * *

Target: Cholinesterase (Homo sapiens, UniProt P06276)
Sequence (P06276 whole entry): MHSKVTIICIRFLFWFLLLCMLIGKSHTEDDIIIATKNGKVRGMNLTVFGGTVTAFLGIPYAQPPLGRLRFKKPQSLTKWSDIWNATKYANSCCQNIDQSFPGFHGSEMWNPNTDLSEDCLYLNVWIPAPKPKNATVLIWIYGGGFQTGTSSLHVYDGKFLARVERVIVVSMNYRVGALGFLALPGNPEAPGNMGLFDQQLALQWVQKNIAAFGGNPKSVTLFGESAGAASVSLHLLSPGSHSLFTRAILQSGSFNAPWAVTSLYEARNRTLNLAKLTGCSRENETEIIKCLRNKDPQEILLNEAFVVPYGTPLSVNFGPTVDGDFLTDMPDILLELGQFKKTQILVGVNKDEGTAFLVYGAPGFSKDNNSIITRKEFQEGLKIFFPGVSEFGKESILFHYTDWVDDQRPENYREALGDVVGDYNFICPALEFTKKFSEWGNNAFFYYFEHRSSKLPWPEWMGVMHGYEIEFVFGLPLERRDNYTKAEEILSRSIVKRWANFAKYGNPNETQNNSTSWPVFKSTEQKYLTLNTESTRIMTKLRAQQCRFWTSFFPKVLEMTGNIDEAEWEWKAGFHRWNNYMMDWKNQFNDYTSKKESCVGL
Test: Inhibition of human serum BChE using butyrylthiocholine iodide as substrate preincubated for 20 mins prior to substrate addition by Ellman's method
pIC50: −log10 of the molar value.
Below is a list of entries, each paired with its recorded pIC50 value.
measured metric: pIC50

>>> reported_value("COc1ccc(/C=N/NC(=O)Nc2ccncc2)cc1OC")
3.37
>>> reported_value("O=C(N/N=C/c1ccccc1)Nc1ccncc1")
3.07

* * *

Test system: Rattus norvegicus
Experiment: Cognitive enhancing effect in Wistar rat assessed as reversal of learning impairment measured as transfer latency at 5 mg/kg, po for 8 days measured on second day of test by elevated plus maze test (reference value: 66.824 +/- 0.47 seconds)
Assay type: functional
Binarize Time at 50 s; below is label 1, at or above is label 0.

>>> assigned_category("COc1cc(/C=N/NC(=O)Nc2ccncc2)ccc1O")
"label 1"
>>> assigned_category("O=C(N/N=C/c1ccc(O)cc1O)Nc1ccncc1")
"label 1"
>>> assigned_category("NNC(=O)Nc1ccncc1")
"label 0"
>>> assigned_category("COc1cc2c(cc1OC)C(=O)C(CC1CCN(Cc3ccccc3)CC1)C2 (stereo unspecified) [DONEPEZIL]")
"label 1"
>>> assigned_category("NC(=O)Nc1ccncc1")
"label 0"
>>> assigned_category("O=C(N/N=C/c1ccccc1)Nc1ccncc1")
"label 0"
>>> assigned_category("COc1ccc(/C=N/NC(=O)Nc2ccncc2)cc1OC")
"label 1"
>>> assigned_category("O=C(NN=C(c1ccccc1)c1ccccc1)Nc1ccncc1")
"label 1"
>>> assigned_category("C/C(=N\\NC(=O)Nc1ccncc1)c1ccc(O)cc1")
"label 1"
